target: T1, human tissue factor (TF) on human bladder carcinoma cells J82 (human, UniProt P13726 33-295); test: cell ELISA on fixed J82 cells
T1 construct: whole, on cells; J82 is described as a TF-high expression cell line; also called the antigen; J82 (ATCC HTB-1)
T1 sequence (P13726 33-295): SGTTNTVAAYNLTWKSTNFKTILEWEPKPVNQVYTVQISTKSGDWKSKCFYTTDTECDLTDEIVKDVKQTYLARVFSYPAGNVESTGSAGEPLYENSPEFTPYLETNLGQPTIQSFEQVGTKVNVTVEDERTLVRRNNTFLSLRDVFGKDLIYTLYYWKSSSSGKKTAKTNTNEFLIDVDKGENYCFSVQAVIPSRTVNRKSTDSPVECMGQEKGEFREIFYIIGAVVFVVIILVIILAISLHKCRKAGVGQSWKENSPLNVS

Binder	binding result
H chain humanized version b/L chain humanized version c antibody (antibody, V domains shown, Humanized antibodies were expressed from vector N5KG4P (IgG4-type); the construction of the b-c plasmid itself is not described; also called b-c) VH: QVQLLESGAVLARPGTSVKISCKASGFNIKDYYMHWVKQRPGQGLEWIGGNDPANGHSMYDPKFQGRVTITADTSTNTAYMELSSLRSEDTAIYYCARDSGYAMDYWGQGTLVTVSS VL: DIQMTQSPSSLSASVGDRVTITCKASQDIKSFLSWYQQKPGKAPKLLIYYATSLADGVPSRFSGSGSGTDYTLTISSLQPEDIATYYCLQHGESPYTFGGGTKVEIK	binds
H chain humanized version d3/L chain humanized version b antibody (antibody, V domains shown, Expressed from vector N5KG4P (IgG4-type, human Cgamma4 and Ckappa); also called d3-b; hHvd3-hLvb/N5KG4P) VH: QVQLLESGAVLARPGTSVKISCKASGFNIKDYYMHWVRQAPGQGLEWIGGNDPANGHSMYDPKFQGRVTITADESTSTAYMELSSLRSEDSAVYFCARDSGYAMDYWGQGTLVTVSS VL: DIQMTQSPSSLSASVGDRVTITCKASQDIKSFLSWYQQKPGKAPKLLIYYATSLADGVPSRFSGSGSGTDYTLTISSLQPEDFATYYCLQHGESPYTFGGGTKVEIK	binds
